- ASSAY: Microsomal stability, human liver microsomes
- Type: in vitro ADME
- REPORTED_CONDITIONS: 0.5 mg/mL protein, NADPH, Phase I, read-out: Microsomal Stability Human Phase I t1/2
RECORDED_ENDPOINT: half-life at 1 μM (min)

MOLECULE	half-life at 1 μM / min
O=c1[nH]c2sc(CN3CCSC3)cc2c2c(O)cccc12 [Example 12]	6

(P) O=c1[nH]c2sc(CN3CCC(Br)CC3)cc2c2c(O)cccc12 [Example 15]
(Q) O=c1[nH]c2sc(CN3CCCCC3)cc2c2c(O)cccc12 [Example 11]
query: Between P and Q , whose measured half-life at 1 μM reads higher? Pick one; state its label.
result: Q

Data origin: patent US9079915B2
